# target-or-system: γ-secretase (Homo sapiens)
# Construct: The endogenous γ-secretase present in the isolated membranes; endogenous in cells
# run-description: Isolated membrane γ-secretase assay, time-resolved fluorescence detection of Aβ
# condition-label: isolated membranes, about 90 minutes at 37 degrees C; read-out: Activity (IC50), Inhibition of β-Amyloid Peptide

- compound: "CC(C(O)CCc1ccccc1)N(c1cc(Cl)ccc1Cl)S(=O)(=O)c1ccc(Cl)cc1 (single isomer, unassigned) [Example 17B]"
  IC50: "200 to 5000 nM"
- compound: "CCCC(=O)OC(CCC)[C@@H](C)N(c1cc(Cl)ccc1F)S(=O)(=O)c1ccc(Cl)cc1 (single isomer, unassigned)"
  IC50: "50 to 200 nM"
- compound: "C=CCCC(O)C(C)N(c1cc(Cl)ccc1F)S(=O)(=O)c1ccc(Cl)cc1 (single isomer, unassigned) [Example 20A]"
  IC50: "50 to 200 nM"
